IC50 listing for selected compounds.
# target.of.assay: ligand binding domain of human RORγ (A262-S507) (Homo sapiens, UniProt P51449)
# Construct: made in house; host or cells: E. coli
# Sequence (P51449 262-507): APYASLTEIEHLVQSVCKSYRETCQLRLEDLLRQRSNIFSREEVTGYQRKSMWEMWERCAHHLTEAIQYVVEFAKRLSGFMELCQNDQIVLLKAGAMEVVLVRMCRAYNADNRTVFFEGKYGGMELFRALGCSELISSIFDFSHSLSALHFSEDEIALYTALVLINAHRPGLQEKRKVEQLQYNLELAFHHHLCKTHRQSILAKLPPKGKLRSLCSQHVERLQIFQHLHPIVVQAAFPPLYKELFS
# experimental.protocol: General RORγ SPA binding assay (competition with [3H]25-hydroxycholesterol)
# condition.context: RORγ SPA binding assay, inhibition of [3H]25-hydroxycholesterol binding; read-out: IC50

| given.smiles | IC50 |
| --- | --- |
| Cc1ncc(C(=O)NCc2cc(F)cc(Cl)c2)c(C2CCN(C(=O)Cc3c(F)cccc3F)CC2)n1 | 4.8 nM |
| C/C(=N\Oc1ccnc(C(F)(F)F)n1)c1cnc(C)nc1C1CCN(C(=O)Nc2c(F)cccc2F)CC1 | 158 nM |
| Cc1cc(C)cc(CNC(=O)c2cnc(C)nc2C2CCN(C(=O)Cc3ccccc3OC(F)(F)F)CC2)c1 | 31.6 nM |
| Cc1ncc(C(=O)NCc2ccnc(Cl)c2)c(C2CCN(C(=O)Cc3c(F)cccc3F)CC2)n1 | 19.3 nM |

###

# target.of.assay: ligand binding domain of human RORγ (A262-S507) (Homo sapiens)
# Construct: made in house; host or cells: E. coli
# experimental.protocol: General RORγ SPA binding assay (competition with [3H]25-hydroxycholesterol)
# condition.context: RORγ SPA binding assay, inhibition of [3H]25-hydroxycholesterol binding; read-out: IC50
observed.property: IC50 (nM)

| compound | unit.symbol | test.result |
| --- | --- | --- |
| Cc1cc(C)cc(CNC(=O)c2cnc(C)nc2C2CCN(C(=O)Cc3ccccc3Cl)CC2)c1 [Compound A7] | nM | 28.1 |
| Cc1ncc(C(F)(F)CNc2ccnc(C(F)(F)F)n2)c(C2CCN(C(=O)Nc3c(F)cccc3F)CC2)n1 [Compound N18] | nM | 16.2 |
| C/C(=N\Oc1cc(C)cc(C)c1)c1cnc(C)nc1C1CCN(C(=O)Cc2c(F)cccc2F)CC1 [Compound B9] | nM | 2.7 |
| COc1ccc(CNc2ncc(C(C)(O)COc3ccnc(C(F)(F)F)n3)c(C3CCN(C(=O)Nc4c(F)cccc4F)CC3)n2)c(OC)c1 (stereo not shown) [Compound D37] | nM | 112 |

###

# target.of.assay: ligand binding domain of human RORγ (A262-S507) (Homo sapiens, UniProt P51449)
# Construct: made in house; host or cells: E. coli
# experimental.protocol: General RORγ SPA binding assay (competition with [3H]25-hydroxycholesterol)
# condition.context: RORγ SPA binding assay, inhibition of [3H]25-hydroxycholesterol binding; read-out: IC50
pIC50: −log10 of the molar value.
Response key: true means pIC50 >= 7; false means pIC50 < 7.

| compound | group |
| --- | --- |
| Cc1ncc(C(=O)NCc2cnc(Cl)s2)c(C2CCN(C(=O)Cc3c(F)cccc3F)CC2)n1 [Compound A72] | false |
| Cc1ncc(C(CF)=NOc2ccnc(C(F)(F)F)c2)c(C2CCN(C(=O)Cc3c(F)cccc3F)CC2)n1 [Compound B24] | true |
| Cc1nc(C)c(-c2nnc(-c3ccc(Cl)nc3)o2)c(C2CCN(C(=O)Cc3c(F)cccc3F)CC2)n1 [Compound C23] | false |
| CN(C)c1ncc(C(C)(O)COc2ccnc(C(F)(F)F)n2)c(C2CCN(C(=O)Nc3c(F)cccc3F)CC2)n1 (centres unmarked) [Compound D38] | true |
| Cc1nc(C)c(-c2nnc(-c3ccnc(C(F)(F)F)n3)o2)c(C2CCN(C(=O)Cc3ncccc3Cl)CC2)n1 [Compound C42] | false |
| Nc1ncc(C(O)COc2ccnc(C(F)(F)F)n2)c(C2CCN(C(=O)Nc3c(F)cccc3F)CC2)n1 (centres unmarked) [Compound N2] | true |
| COc1nc(C)c(-c2nnc(-c3cccc(C(F)(F)F)n3)o2)c(C2CCN(C(=O)Nc3c(F)cccc3F)CC2)n1 [Compound C60] | false |
| Cc1ncc(C(C)(O)CNc2nccc(C(F)(F)F)n2)c(C2CCN(C(=O)Nc3c(F)cccc3F)CC2)n1 (centres unmarked) [Compound D21] | true |
| C/C(=N\Oc1cccc(Cl)c1)c1cnc(C)nc1C1CCN(C(=O)Cc2c(F)cccc2F)CC1 [Compound B5] | true |
| Cc1ncc(C2(C)CN(c3ccnc(C(F)(F)F)n3)C(=O)O2)c(C2CCN(C(=O)Cc3c(F)cccc3F)CC2)n1 (centres unmarked) [Compound N50] | false |
| Cc1nc(C)c(-c2nc(-c3cccc(C(F)(F)F)c3)no2)c(C2CCN(C(=O)Nc3c(F)cccc3F)CC2)n1 [Compound C63] | false |
| Cc1ncc(C(C)(O)COc2cccc(C(F)(F)F)n2)c(C2CCN(C(=O)Nc3c(F)cccc3F)CC2)n1 (centres unmarked) [Compound D25] | true |
| CCC/C(=N/Oc1cccc(C(F)(F)F)c1)c1c(C)nc(C)nc1C1CCN(C(=O)Cc2c(F)cccc2F)CC1 [Compound B49] | false |
